Field pIC50: reported value for Proto-oncogene tyrosine-protein kinase Src (Homo sapiens, UniProt P12931); entries drawn from several documents.
pIC50: −log10 of the molar value.

For orientation, consider the following solved cases.
Compound: CS(=O)(=O)c1cccc(-c2cnc3[nH]cc(C(=O)c4cc(O)ccc4F)c3c2)c1
Test system: Proto-oncogene tyrosine-protein kinase Src (Homo sapiens, UniProt P12931)
pIC50: ≥ 5.00
//
Compound: O=C(c1c(F)ccc(NS(=O)(=O)C(F)(F)F)c1F)c1c[nH]c2ncc(Cl)cc12
Test system: Proto-oncogene tyrosine-protein kinase Src (Homo sapiens, UniProt P12931)
pIC50: ≥ 5.00
//
Compound: CCCS(=O)(=O)Nc1ccc(F)c(C(=O)c2c[nH]c3ncc(-c4ccc(N(C)C)nc4)cc23)c1F
Test system: Proto-oncogene tyrosine-protein kinase Src (Homo sapiens, UniProt P12931)
pIC50: ≥ 5.00
//
Compound: O=C1NC(=O)C2=C1c1cn(c3ccccc13)CCCOC(CO)CCn1cc2c2ccccc21 (stereo not shown)
Test system: Proto-oncogene tyrosine-protein kinase Src (Homo sapiens, UniProt P12931)
pIC50: < 4.00
//
Compound: COc1c(CC(N)=O)cc(C(C)(C)C)cc1NC(=O)Nc1ccc(Oc2ccnc(Nc3ccn(C)n3)c2)c2ccccc12
Test system: Proto-oncogene tyrosine-protein kinase Src (Homo sapiens, UniProt P12931)
pIC50: 7.33
//
Compound: C=CC(=O)N1CCC(N2CC(C#Cc3c(-c4ccc(OC5CC5)cc4)c4c(N)ncnc4n3C)C2)CC1
Test system: Proto-oncogene tyrosine-protein kinase Src (Homo sapiens, UniProt P12931)
pIC50: 5.00 to 6.00

Could you now look at the following compound, please?
Ask: Tell me its pIC50 given C=CC(=O)N1CC[C@@H](N2CC(C#Cc3c(-c4ccc5c(c4)N(C)CCO5)c4c(N)ncnc4n3C)C2)[C@@H](O)C1 as the entry.
Result: 5.00 to 6.00

* * *

The following compounds were reported with pIC50 values on Proto-oncogene tyrosine-protein kinase Src (Homo sapiens) in different studies.
pIC50: −log10 of the molar value.
Attribute measured: pIC50

Item smiles: Cc1ccc(-n2nc(C(C)(C)C)cc2NC(=O)Nc2ccc(OCc3ccnc(Nc4cnc(CO)cn4)c3)c3ccccc23)cc1
Test system: Proto-oncogene tyrosine-protein kinase Src (Homo sapiens)
Readout number: 7.33

(I) O=C(NCCO)c1nc2nc(Nc3ccc(OCCO)cc3)ncc2cc1-c1c(Cl)cccc1Cl
(II) O=C(NCCCN1CCOCC1)c1nc2nc(Nc3ccc(F)cc3)ncc2cc1-c1ccccc1Br
Ask: Between the entries labelled I and II , which has a larger pIC50 value on record? To answer, give the label that identifies your chosen option.
Result: I
(I: 8.27, II: 6.93)

* * *

Let's look at some pIC50 data for Proto-oncogene tyrosine-protein kinase Src (Homo sapiens, UniProt P12931) that I collected from the literature.
pIC50: −log10 of the molar value.

Ask: Enter measured pIC50, system Proto-oncogene tyrosine-protein kinase Src (Homo sapiens, UniProt P12931), for the compound shown: CCOc1ccc(Nc2ncnc(Nc3ccc(OCc4ccccc4)cc3)n2)cc1OCC
Result: < 5.01

Ask: Give the observed pIC50 of CN1CCN(Cc2ccc(NC(=O)c3sc4ncnc5c4c3NC(=O)N5c3ccc(Oc4ccccc4)cc3)cc2)CC1 for Proto-oncogene tyrosine-protein kinase Src (Homo sapiens, UniProt P12931).
Result: 6.23

Ask: Enter recorded pIC50 with Proto-oncogene tyrosine-protein kinase Src (Homo sapiens, UniProt P12931) for CCc1cccc(Nc2ncnc(-n3c(N)nc4ccccc43)n2)c1 here.
Result: 4.98 to 5.14

Ask: Write pIC50 of CNC(=O)c1ccc(-c2cn3ncc4c3nc2NCc2cc(F)cnc2O[C@@H](C)CNC4=O)cc1 ; system used: Proto-oncogene tyrosine-protein kinase Src (Homo sapiens, UniProt P12931)
Result: < 5.00

Ask: Give pIC50 for C=CC(=O)N[C@H](CO)C(=O)N1CCC(C#Cc2c(-c3ccc(Oc4cccc(C)n4)cc3)c3c(N)ncnc3n2C)CC1 tested on Proto-oncogene tyrosine-protein kinase Src (Homo sapiens, UniProt P12931).
Result: 6.00 to 8.00

Ask: Lab note: Proto-oncogene tyrosine-protein kinase Src (Homo sapiens, UniProt P12931) assay, enter pIC50 for Cc1ccc(-n2nc(C(C)(C)C)cc2NC(=O)Nc2ccc(Oc3cc(Nc4ccc5[nH]ncc5c4)ncn3)c3ccccc23)cc1 here
Result: 7.80

Ask: Give Proto-oncogene tyrosine-protein kinase Src (Homo sapiens, UniProt P12931) pIC50 for the following compound: COc1cc(Nc2c(C#N)cnc3cc(-c4ccc(C=O)s4)ccc23)c(Cl)cc1Cl
Result: 7.96

Ask: Enter pIC50 (test system Proto-oncogene tyrosine-protein kinase Src (Homo sapiens, UniProt P12931)) for O=C(N[C@@H]1CCCNC1)c1nc2nc(Nc3ccc(F)cc3)ncc2cc1-c1ccccc1Br
Result: 7.01

Ask: Fill in pIC50 for N#Cc1ccc(-n2cnc3cc(OCCOCCO)c(NC4CCCC(O)C4)nc32)nc1 (stereo not shown) tested with Proto-oncogene tyrosine-protein kinase Src (Homo sapiens, UniProt P12931).
Result: 6.12

Ask: Report its pIC50 with Proto-oncogene tyrosine-protein kinase Src (Homo sapiens, UniProt P12931) as the test system: COc1cc(Nc2cc(Oc3ccc(NC(=O)Nc4cc(C(C)(C)C)cc(NS(C)(=O)=O)c4OC)c4ccccc34)ccn2)ccc1S(=O)(=O)N(C)CCCN1CCOCC1
Result: 6.82

Ask: Report its pIC50 with Proto-oncogene tyrosine-protein kinase Src (Homo sapiens, UniProt P12931) as the test system: COc1cc2ccn(-c3ncnc(Nc4cc(OC)c(OC)c(OC)c4)n3)c2cc1OC
Result: < 4.99

Ask: Write down measured pIC50 (Proto-oncogene tyrosine-protein kinase Src (Homo sapiens, UniProt P12931)) for this compound. COc1cc(Nc2nc3c(-c4cccc5[nH]ncc45)nccn3n2)cc(OC)c1
Result: > 6.52

Ask: Supply pIC50 measured with Proto-oncogene tyrosine-protein kinase Src (Homo sapiens, UniProt P12931) for COc1cnc2[nH]cc(C(=O)c3c(F)ccc(NS(=O)(=O)N4CCOCC4)c3F)c2c1 .
Result: ≥ 5.00

Ask: Specify pIC50 for COc1cc(Nc2ncnc(Nc3cc(C)[nH]n3)n2)cc(OC)c1OC , system Proto-oncogene tyrosine-protein kinase Src (Homo sapiens, UniProt P12931).
Result: 5.17 to 5.95

Ask: Look up Proto-oncogene tyrosine-protein kinase Src (Homo sapiens, UniProt P12931) data: pIC50 of COc1cc(-c2cc3nccc(-c4cccc(C(=O)N5CCC(N)C5)c4)c3o2)cc(OC)c1OC (stereo not shown) , then report it.
Result: 5.52 to 6.52

Ask: For Proto-oncogene tyrosine-protein kinase Src (Homo sapiens, UniProt P12931), give the measured pIC50 of the entry O=C(c1c(F)ccc(NS(=O)(=O)c2ccc(-c3cnco3)s2)c1F)c1c[nH]c2ncc(Cl)cc12
Result: ≥ 5.00
